Data provenance is paper PMC10397247.

TESTED_SYSTEM: T1, 4H568-bN
T1 chain: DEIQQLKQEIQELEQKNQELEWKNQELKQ
ASSAY_NAME: two-hybrid library CCNG1;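 also: natural log of median RNA to DNA barcode read ratio; higher means stronger binding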
VALUE_TYPE: interaction score

Worked set:
* DKNQQLEQEIQELKQKNQELEWKIQELEQ [4H3189-bN] | -0.877
* DKIQQLKQEIQELEQKNQELKWEIQELKQ [4H2618-bN] | -1.88

A. DKNQQLKQEIQELEQENQELEWKIQELKQ [4H3606-bN]
B. DENQQLKQKIQELEQKIQELEWENQELKQ [4H1828-bN]
C. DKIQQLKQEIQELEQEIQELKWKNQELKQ [4H2576-bN]
D. DKNQQLKQKIQELEQEIQELKWKNQELEQ [4H3855-bN]
E. DKIQQLKQENQELEQEIQELKWEIQELEQ [4H2697-bN]
Task: Sequence the entries by interaction score, beginning with the highest number. Form entry: labels listed in requested order.
Output: A, D, C, B, E
